Consider molecules characterized by their IC50 with 3-oxoacyl-[acyl-carrier-protein] synthase 3 (Escherichia coli).
Sequence (C3TDZ2 whole entry): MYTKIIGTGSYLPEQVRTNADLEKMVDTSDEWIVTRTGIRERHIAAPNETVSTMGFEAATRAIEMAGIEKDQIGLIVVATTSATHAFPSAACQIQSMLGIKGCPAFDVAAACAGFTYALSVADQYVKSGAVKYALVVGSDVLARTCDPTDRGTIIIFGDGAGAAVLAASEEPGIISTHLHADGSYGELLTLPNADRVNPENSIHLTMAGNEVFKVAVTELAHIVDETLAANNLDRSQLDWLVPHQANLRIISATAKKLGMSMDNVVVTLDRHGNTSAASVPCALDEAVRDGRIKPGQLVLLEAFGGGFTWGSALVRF
property-measured: IC50 (µM)

Please review the entries below; each comes with its answer.
| chem-smiles | target-entity | IC50, µM |
| --- | --- | --- |
| O=C(NCCC/N=C/c1cc(F)ccc1O)c1ccccc1O | 3-oxoacyl-[acyl-carrier-protein] synthase 3 (Escherichia coli) | 5.56 |
| O=C(NCCCC/N=C/c1ccccc1O)c1ccccc1O | 3-oxoacyl-[acyl-carrier-protein] synthase 3 (Escherichia coli) | 43.4 |
| O=C(NCC/N=C/c1cc(Br)cc(Br)c1O)c1ccccc1O | 3-oxoacyl-[acyl-carrier-protein] synthase 3 (Escherichia coli) | 1.22 |
| O=C(NCC/N=C/c1cc(Br)ccc1O)c1ccccc1O | 3-oxoacyl-[acyl-carrier-protein] synthase 3 (Escherichia coli) | 17.1 |
| O=C(NCCCC/N=C/c1c(O)ccc2ccccc12)c1ccccc1O | 3-oxoacyl-[acyl-carrier-protein] synthase 3 (Escherichia coli) | 8.55 |
| O=C(NCCCNC(=O)c1ccccc1O)c1ccccc1O | 3-oxoacyl-[acyl-carrier-protein] synthase 3 (Escherichia coli) | 41.8 |

a: O=C(NCCCCCC/N=C/c1cc(Cl)ccc1O)c1ccccc1O
b: O=C(NCCC/N=C/c1cc(Cl)cc(Cl)c1O)c1ccccc1O
c: O=C(NCCC/N=C/c1cc(Cl)ccc1O)c1ccccc1O
d: O=C(NCCCCNC(=O)c1ccccc1O)c1ccccc1O
Order the records, beginning with the lowest IC50 and ending with the highest. Show the ranking through the labels, in the order asked for. c, b, a, d

All values here come from ChEMBL document CHEMBL1153089.
